- Test system: NF-κB
- Method Notes: NF-κB assay: THP1-NF-κB-LUC cells, LPS-stimulated secreted luciferase
- Assay type: cell-based
- Condition Notes: THP1-NF-κB-LUC cells; compounds 2 hours before LPS (10 ng/mL) for 18 hours; secreted luciferase; read-out: IC50 (NF-κB assay)

- Molecule: "CCc1ccc(C(=O)C2=CN(c3ccccc3)c3ccc(F)cc3S2(=O)=O)cc1"
  Measured Target: "NF-κB"
  IC50: "> 10000 nM"
- Molecule: "CC1Oc2cc(S(=O)(=O)Nc3ccccc3)c(Br)cc2N(C)C1=O (stereo not shown)"
  Measured Target: "NF-κB"
  IC50: "1000 to 10000 nM"
- Molecule: "CC(C)CC1Oc2c(cc(Br)cc2S(=O)(=O)Nc2ccc(F)cc2Cl)NC1=O (stereo not shown)"
  Measured Target: "NF-κB"
  IC50: "< 100 nM"
- Molecule: "O=C1COc2cc(S(=O)(=O)Nc3ccc(F)cc3F)c(Br)cc2N1"
  Measured Target: "NF-κB"
  IC50: "< 100 nM"
- Molecule: "CCc1ccc(S(=O)(=O)c2c[nH]c3ccc(F)cc3c2=O)cc1"
  Measured Target: "NF-κB"
  IC50: "100 to 1000 nM"
- Molecule: "CCn1cc(S(=O)(=O)c2ccc(C)cc2)c(=O)c2cc(F)ccc21"
  Measured Target: "NF-κB"
  IC50: "> 10000 nM"
- Molecule: "Cc1ccc(NS(=O)(=O)c2cc3c(cc2C)NC(=O)CO3)c(C)c1"
  Measured Target: "NF-κB"
  IC50: "> 10000 nM"
- Molecule: "COc1ccc(C)c2c(=O)c(S(=O)(=O)c3ccc(F)c(F)c3)c[nH]c12"
  Measured Target: "NF-κB"
  IC50: "1000 to 10000 nM"
- Molecule: "CCN(CC)c1ccc(NS(=O)(=O)c2cc3c(cc2C)NC(=O)CO3)c(C)c1"
  Measured Target: "NF-κB"
  IC50: "> 10000 nM"
- Molecule: "COc1ccc(NS(=O)(=O)c2cc3c(cc2Br)N(C)C(=O)C(C)O3)cc1Cl (stereo not shown)"
  Measured Target: "NF-κB"
  IC50: "> 10000 nM"
- Molecule: "CC1Oc2cc(S(=O)(=O)Nc3cccc(F)c3)c(Cl)cc2NC1=O (stereo not shown)"
  Measured Target: "NF-κB"
  IC50: "100 to 1000 nM"
- Molecule: "COc1ccc(C)cc1NS(=O)(=O)c1cc2c(cc1C)NC(=O)CO2"
  Measured Target: "NF-κB"
  IC50: "> 10000 nM"
- Molecule: "CCC1Oc2cc(S(=O)(=O)Nc3ccc(C(C)C)cc3)c(Cl)cc2NC1=O (stereo not shown)"
  Measured Target: "NF-κB"
  IC50: "< 100 nM"
- Molecule: "CC1Oc2c(cc(Br)cc2S(=O)(=O)NCc2ccc(C(F)(F)F)cc2)NC1=O (stereo not shown)"
  Measured Target: "NF-κB"
  IC50: "1000 to 10000 nM"
- Molecule: "CCc1cccc(NS(=O)(=O)c2cc(Cl)cc3c2OC(C)C(=O)N3)c1 (stereo not shown)"
  Measured Target: "NF-κB"
  IC50: "< 100 nM"
- Molecule: "CC1Oc2cc(S(=O)(=O)NC3CCC(O)CC3)c(Br)cc2NC1=O (stereo not shown)"
  Measured Target: "NF-κB"
  IC50: "> 10000 nM"
- Molecule: "CC1Oc2c(cc(Cl)cc2S(=O)(=O)Nc2ccc(F)c(F)c2)NC1=O (stereo not shown)"
  Measured Target: "NF-κB"
  IC50: "< 100 nM"
- Molecule: "CC1Oc2cc(S(=O)(=O)Nc3cccc(Cl)c3)c(Cl)cc2NC1=O (stereo not shown)"
  Measured Target: "NF-κB"
  IC50: "< 100 nM"
- Molecule: "CCS(=O)(=O)c1cc2c(c(S(=O)(=O)Nc3cccc(Cl)c3)c1)OCC(=O)N2"
  Measured Target: "NF-κB"
  IC50: "< 100 nM"

* * *

- Test system: NF-κB
- Method Notes: NF-κB assay: THP1-NF-κB-LUC cells, LPS-stimulated secreted luciferase
- Format: cell-based
- Condition Notes: THP1-NF-κB-LUC cells; compounds 2 hours before LPS (10 ng/mL) for 18 hours; secreted luciferase; read-out: IC50 (NF-κB assay)
Parameter Measured: IC50

- Molecule: "CCS(=O)(=O)c1cc2c(c(S(=O)(=O)Nc3ccc(OC(F)(F)F)cc3)c1)OCC(=O)N2"
  Parameter Measured: "IC50"
  Measured Result: "< 100 nM"
- Molecule: "CCC1Oc2c(cc(Cl)cc2S(=O)(=O)Nc2ccc(OC(F)(F)F)cc2)NC1=O (stereo not drawn)"
  Parameter Measured: "IC50"
  Measured Result: "< 100 nM"
- Molecule: "CCC1Oc2c(cc(Br)cc2S(=O)(=O)NCc2ccccc2)NC1=O (stereo not drawn)"
  Parameter Measured: "IC50"
  Measured Result: "< 100 nM"
- Molecule: "CCOc1ccc2c(c1)c(=O)c(S(=O)(=O)c1ccc(Cl)cc1)cn2C"
  Parameter Measured: "IC50"
  Measured Result: "> 10000 nM"
- Molecule: "CC(C)(C)C1CCC(NS(=O)(=O)c2cc3c(cc2Br)NC(=O)CO3)CC1 (stereo not drawn)"
  Parameter Measured: "IC50"
  Measured Result: "> 10000 nM"
- Molecule: "CCS(=O)(=O)c1cc2c(c(S(=O)(=O)Nc3ccc(F)cc3)c1)OCC(=O)N2"
  Parameter Measured: "IC50"
  Measured Result: "< 100 nM"
- Molecule: "O=C1COc2c(cc(Cl)cc2S(=O)(=O)Nc2ccc(Cl)cc2)N1"
  Parameter Measured: "IC50"
  Measured Result: "< 100 nM"
- Molecule: "CCc1ccc(NS(=O)(=O)c2cc3c(cc2Br)NC(=O)C(C)O3)cc1 (stereo not drawn)"
  Parameter Measured: "IC50"
  Measured Result: "< 100 nM"
- Molecule: "COc1ccc(NS(=O)(=O)c2cc3c(cc2Cl)NC(=O)C(C)O3)cc1 (stereo not drawn)"
  Parameter Measured: "IC50"
  Measured Result: "< 100 nM"
- Molecule: "CCc1cccc(NS(=O)(=O)c2cc(Br)cc3c2OC(CC(C)C)C(=O)N3)c1 (stereo not drawn)"
  Parameter Measured: "IC50"
  Measured Result: "< 100 nM"
- Molecule: "CCC1Oc2cc(S(=O)(=O)NCc3ccccc3)c(Br)cc2NC1=O (stereo not drawn)"
  Parameter Measured: "IC50"
  Measured Result: "1000 to 10000 nM"
- Molecule: "CC1Oc2cc(S(=O)(=O)NC3CCC(C(C)(C)C)CC3)c(Br)cc2NC1=O (stereo not drawn)"
  Parameter Measured: "IC50"
  Measured Result: "> 10000 nM"
- Molecule: "CCC1Oc2c(cc(Cl)cc2S(=O)(=O)Nc2ccccc2)NC1=O (stereo not drawn)"
  Parameter Measured: "IC50"
  Measured Result: "< 100 nM"
- Molecule: "Cc1ccc(C)c2c(=O)c(S(=O)(=O)c3ccc(F)c(F)c3)c[nH]c12"
  Parameter Measured: "IC50"
  Measured Result: "1000 to 10000 nM"
- Molecule: "CC1Oc2c(cc(Br)cc2S(=O)(=O)NCc2ccc(F)cc2F)NC1=O (stereo not drawn)"
  Parameter Measured: "IC50"
  Measured Result: "100 to 1000 nM"
- Molecule: "CCC1Oc2c(cc(Br)cc2S(=O)(=O)Nc2cccc(Cl)c2)NC1=O (stereo not drawn)"
  Parameter Measured: "IC50"
  Measured Result: "< 100 nM"
- Molecule: "CC(C)CC1Oc2c(cc(Br)cc2S(=O)(=O)Nc2ccc(F)cc2F)NC1=O (stereo not drawn)"
  Parameter Measured: "IC50"
  Measured Result: "< 100 nM"
- Molecule: "CCN(c1ccccc1)S(=O)(=O)c1cc2c(cc1C)NC(=O)CO2"
  Parameter Measured: "IC50"
  Measured Result: "> 10000 nM"

* * *

The entries below come with measured IC50 values attached.
- System: TNF release
- Method Notes: TNF assay: TNF release from LPS-stimulated human PBMCs (TNF ELISA)
- Assay type: cell-based
- Condition Notes: PBMC; human PBMCs; compounds 2 hours before LPS (10 ng/ml) for 18 hours; supernatant TNF ELISA; read-out: IC50 (TNF assay)
- Procedure: 25k THP1-NF-κB-LUC cells were dispensed into 384 well plate (per well). Cells were treated with compounds with various concentrations for 2 hours before addition of LPS (10 ng/mL) for 18 hours. Secreted luciferase activity were measured using quant-luc reagents (1 bag of luc reagent dilute to 40 mL, use 10 μL per well). Data were normalized to vehicle control and graphed. Compound IC50 towards inhibiting NF-κB were determined through Prism. […]

- Molecule: "COc1ccc(NS(=O)(=O)c2cc(Cl)cc3c2OC(C)C(=O)N3)cc1 (stereo not shown)"
  Measured Target: "TNF release"
  IC50: "> 10 µM"
- Molecule: "O=c1c(S(=O)(=O)c2ccc(F)c(F)c2)cnc2ccccn12"
  Measured Target: "TNF release"
  IC50: "> 10 µM"
- Molecule: "CCC1Oc2cc(S(=O)(=O)Nc3ccc(F)cc3F)c(Br)cc2N(C)C1=O (stereo not shown)"
  Measured Target: "TNF release"
  IC50: "> 10 µM"
- Molecule: "CC1Oc2c(cc(Cl)cc2S(=O)(=O)Nc2ccc(OC(F)(F)F)cc2)NC1=O (stereo not shown)"
  Measured Target: "TNF release"
  IC50: "> 10 µM"
- Molecule: "Cc1ccc(NS(=O)(=O)c2cc3c(cc2Cl)NC(=O)C(C)O3)cc1F (stereo not shown)"
  Measured Target: "TNF release"
  IC50: "> 10 µM"
- Molecule: "CCC1Oc2cc(S(=O)(=O)Nc3cccc(Cl)c3)c(Br)cc2NC1=O (stereo not shown)"
  Measured Target: "TNF release"
  IC50: "> 10 µM"
- Molecule: "CC1Oc2cc(S(=O)(=O)Nc3ccc(F)c(F)c3)c(Cl)cc2NC1=O (stereo not shown)"
  Measured Target: "TNF release"
  IC50: "> 10 µM"
- Molecule: "CCS(=O)(=O)c1cc2c(c(S(=O)(=O)Nc3ccc(F)cc3)c1)OCC(=O)N2"
  Measured Target: "TNF release"
  IC50: "> 10 µM"
- Molecule: "CC1Oc2cc(S(=O)(=O)Nc3cccc(Cl)c3)c(Cl)cc2NC1=O (stereo not shown)"
  Measured Target: "TNF release"
  IC50: "1 to 10 µM"
- Molecule: "Nc1cccc2cc(S(=O)(=O)c3ccccc3)cnc12"
  Measured Target: "TNF release"
  IC50: "0.1 to 1 µM"
- Molecule: "CCC1Oc2cc(S(=O)(=O)Nc3ccc(OC)cc3)c(Br)cc2N(C)C1=O (stereo not shown)"
  Measured Target: "TNF release"
  IC50: "> 10 µM"
- Molecule: "COc1ccc(NS(=O)(=O)c2cc(S(C)(=O)=O)cc3c2OCC(=O)N3)cc1Cl"
  Measured Target: "TNF release"
  IC50: "> 10 µM"
- Molecule: "CCc1ccc(NS(=O)(=O)c2cc3c(cc2Br)NC(=O)C(CC(C)C)O3)cc1 (stereo not shown)"
  Measured Target: "TNF release"
  IC50: "> 10 µM"
- Molecule: "CCC1Oc2cc(S(=O)(=O)Nc3cc(Cl)ccc3C)c(Cl)cc2NC1=O (stereo not shown)"
  Measured Target: "TNF release"
  IC50: "> 10 µM"
- Molecule: "Cc1ccc(NS(=O)(=O)c2c(C)c(Cl)cc3c2OCC(=O)N3)cc1Cl"
  Measured Target: "TNF release"
  IC50: "> 10 µM"
- Molecule: "COc1ccc(S(=O)(=O)c2cnccc2O)cc1OC"
  Measured Target: "TNF release"
  IC50: "> 10 µM"
- Molecule: "CC(C)CC1Oc2c(cc(Br)cc2S(=O)(=O)Nc2cccc(Cl)c2)NC1=O (stereo not shown)"
  Measured Target: "TNF release"
  IC50: "> 10 µM"
- Molecule: "CN(C)c1cccc2cc(S(=O)(=O)c3ccccc3)cnc12"
  Measured Target: "TNF release"
  IC50: "1 to 10 µM"
- Molecule: "CC(C)CC1Oc2c(cc(Br)cc2S(=O)(=O)Nc2cccc(F)c2)NC1=O (stereo not shown)"
  Measured Target: "TNF release"
  IC50: "> 10 µM"
